Test system: U2OS
Measurement protocol: Multiplex assay against U2OS
Assay type: toxicity, cell-based
Test parameters: human, 48 h, 10 µM, compound concentration 10 uM, replicate 1
Measure: Total Cell Count

{"Compound": "N#Cc1cccc(C(=O)Nc2cc(-c3ccccc3)nn2-c2ccccc2)c1", "Measure": "Total Cell Count", "Readout number": 123}
{"Compound": "CCCc1cc(C)[nH]c(=O)c1CNC(=O)c1cc(-c2ccc(N3CCN(C(C)C)CC3)nc2)cc2c1cnn2C(C)C", "Measure": "Total Cell Count", "Readout number": 95}
{"Compound": "c1ccc(-c2oc3ncnc(NC[C@@H]4CCCO4)c3c2-c2ccccc2)cc1", "Measure": "Total Cell Count", "Readout number": 134}
{"Compound": "C[C@@H](Oc1cc(-n2cnc3ccc(CN4CCN(C)CC4)cc32)sc1C(N)=O)c1ccccc1C(F)(F)F [GSK-461364]", "Measure": "Total Cell Count", "Readout number": 138}

---

Tested on: U2OS
Measurement protocol: Multiplex assay against U2OS
Type: toxicity, cell-based
Test parameters: human, 12 h, 1 µM, compound concentration 1 uM, replicate 1
# maps each entry to its Population Healthy Nuclei (%)
Measure: Population Healthy Nuclei (%)

{"Molecule": "CC[C@@H]1C(=O)N(C)c2cnc(Nc3ccc(C(=O)NC4CCN(C)CC4)cc3OC)nc2N1C1CCCC1", "Measure": "Population Healthy Nuclei (%)", "Unit of measurement": "%", "Readout number": 80}
{"Molecule": "Cl.Cn1c2c(c3ccc(Cl)c(Cl)c31)C(C#N)C1(CCNCC1)NC2=O (stereo not drawn)", "Measure": "Population Healthy Nuclei (%)", "Unit of measurement": "%", "Readout number": 90}
{"Molecule": "C=CC(=O)Nc1cc(-n2c(=O)ccc3cnc4ccc(-c5ccc(NS(C)(=O)=O)cc5)cc4c32)ccc1C", "Measure": "Population Healthy Nuclei (%)", "Unit of measurement": "%", "Readout number": 80}
{"Molecule": "CC(Cc1ccc(O)c(O)c1)C(C)Cc1ccc(O)c(O)c1 (stereo not drawn) [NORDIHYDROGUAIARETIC ACID]", "Measure": "Population Healthy Nuclei (%)", "Unit of measurement": "%", "Readout number": 75}
{"Molecule": "CCCCCNC(=N)N/N=C/c1c[nH]c2ccc(OC)cc12.O=C(O)/C=C\\C(=O)O [TEGASEROD MALEATE]", "Measure": "Population Healthy Nuclei (%)", "Unit of measurement": "%", "Readout number": 75}
{"Molecule": "C[C@@H](Oc1cc(-n2cnc3ccc(CN4CCN(C)CC4)cc32)sc1C(N)=O)c1ccccc1C(F)(F)F", "Measure": "Population Healthy Nuclei (%)", "Unit of measurement": "%", "Readout number": 70}
{"Molecule": "Cl.NC[C@@H]1O[C@H](C23CC4CC(CC(C4)C2)C3)Cc2c1ccc(O)c2O", "Measure": "Population Healthy Nuclei (%)", "Unit of measurement": "%", "Readout number": 80}
{"Molecule": "CC(/C=C1\\SC(=S)N(CCCC(=O)Nc2ccc(C(=O)O)c(O)c2)C1=O)=C\\c1ccccc1", "Measure": "Population Healthy Nuclei (%)", "Unit of measurement": "%", "Readout number": 77}

---

# maps each entry to its Population Fragmented Nuclei (%)
System: U2OS
Measurement protocol: Multiplex assay against U2OS
Assay type: toxicity, cell-based
Test parameters: human, 48 h, 10 µM, compound concentration 10 uM, replicate 1

{"Molecule": "CCCCN(CC)c1nc(C)nc2c1c(C)cn2-c1c(C)cc(C)cc1C.Cl", "Population Fragmented Nuclei (%)": 18}
{"Molecule": "C[C@@H](Oc1cc(-n2cnc3ccc(CN4CCN(C)CC4)cc32)sc1C(N)=O)c1ccccc1C(F)(F)F", "Population Fragmented Nuclei (%)": 27}
{"Molecule": "CC(Cc1ccc(O)c(O)c1)C(C)Cc1ccc(O)c(O)c1 (stereo not drawn) [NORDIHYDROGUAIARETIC ACID]", "Population Fragmented Nuclei (%)": 15}
